The measurements presented in this section are drawn from the PETadex activity labels (doi:10.1016/j.bbagen.2004.12.016).

Measured kcat/Km of individual entries
# Substrate: alpha-Naphthyl caprylate
# condition: pH 5; 37 °C
State just the number; it will be interpreted in M⁻¹ s⁻¹.

Some proteins with recorded kcat/Km:
[
  {
    "protein": "unnamed (protein) MKQFSAKHALAVVVTAGHALAASTQGISEDLYTRLVEMATISQAAYADLCNIPSTIIKGEKIYNSQTDINGWILRDDSSKEIITVFRGTGSDTNLQLDTNYTLTPFDTLPQCNGCEVHGGYYIGWVSVQDQVESLVKQQVSQYPDYALTVTGHSLGASLAALTAAQLSATYDNIRLYTFGEPRSGNQAFASYMNDAFQASSPDTTQYFRVTHANDGIPNLPPVEQGYAHGGVEYWSVDPYSAQNTFVCTGDEVQCCEAQGGQGVNNAHTTYFGMTSGACTW",
    "unit tag": "M⁻¹ s⁻¹",
    "measurement": 10800
  },
  {
    "protein": "unnamed (protein) MKQFSAKHALAVVVTAGHALAASTQGISEDLYTRLVEMATISQAAYADLCNIPSTIIKGEKIYNSQTDINGWILRDDSSKEIITVFRGTGSDRNLQLDTNYTLTPFDTLPQCNGCEVHGGYYIGWVSVQDQVESLVKQQVSQYPDYALTVTGHSLGASLAALTAAQLSATYDNIRLYTFGEPRSGNQAFASYMNDAFQASSPDTTQYFRVTHANDGIPNLPPVEQGYAHGGVEYWSVDPYSAQNTFVCTGDEVQCCEAQGGQGVNNAHTTYFGMTSGACTW",
    "unit tag": "M⁻¹ s⁻¹",
    "measurement": 18800
  },
  {
    "protein": "unnamed (protein) MKQFSAKHALAVVVTAGHALAASTQGISEDLYTRLVEMATISQAAYADLCNIPSTIIKGEKIYNSQTDINGWILRDDSSKEIITVFRGTGSDTNLQLDTNFTLTPFDTLPQCNGCEVHGGYYIGWVSVQDQVESLVKQQVSQYPDYALTVTGHSLGASLAALTAAQLSATYDNIRLYTFGEPRSGNQAFASYMNDAFQASSPDTTQYFRVTHANDGIPNLPPVEQGYAHGGVEYWSVDPYSAQNTFVCTGDEVQCCEAQGGQGVNNAHTTYFGMTSGACTW",
    "unit tag": "M⁻¹ s⁻¹",
    "measurement": 54500
  }
]

As a next step, examine the protein that follows.
Entry unnamed (protein) MKQFSAKHALAVVVTAGHALAASTQGISEDLYTRLVEMATISQAAYADLCNIPSTIIKGEKIYNSQTDINGWILRDDSSKEIITVFRGTGSITNLQLDTNYTLTPFDTLPQCNGCEVHGGYYIGWVSVQDQVESLVKQQVSQYPDYALTVTGHSLGASLAALTAAQLSATYDNIRLYTFGEPRSGNQAFASYMNDAFQASSPDTTQYFRVTHANDGIPNLPPVEQGYAHGGVEYWSVDPYSAQNTFVCTGDEVQCCEAQGGQGVNNAHTTYFGMTSGACTW has what kcat/Km?
12800
